Reference source for all entries: paper PMC2944037

# target.or.test.system: alligator estrogen receptor alpha (aERα) (Alligator mississippiensis, UniProt Q765N7)
# method.description: Cell-free competitive binding assay with baculovirus-expressed recombinant aERα
# Parameters: species or system American alligator (Alligator mississippiensis)
# settings: non-binder <50% E2 displaced; equivocal binder 50% or greater but <80%
measurement.label: Binding classification for aERα

[
  {
    "input.smiles": "Clc1ccc(C(c2ccc(Cl)cc2)C(Cl)Cl)cc1",
    "test.result": "non-binders"
  },
  {
    "input.smiles": "ClC(Cl)=C(c1ccc(Cl)cc1)c1ccc(Cl)cc1",
    "test.result": "non-binders"
  }
]

----------
# target.or.test.system: alligator estrogen receptor alpha (aERα) (Alligator mississippiensis)
# method.description: Cell-free competitive binding assay with baculovirus-expressed recombinant aERα
# Set-up: species or system American alligator (Alligator mississippiensis)
# settings: IC50 of 17β-estradiol / IC50 of compound × 100
measurement.label: RBA, Alligator
Give the figure only, with no unit attached.

So, OC(c1ccc(Cl)cc1)(c1ccc(Cl)cc1)C(Cl)(Cl)Cl ? Its RBA, Alligator was 0.02

Entry Clc1ccc(C(c2ccccc2Cl)C(Cl)(Cl)Cl)cc1 (stereo not drawn) , RBA, Alligator reported as 0.08

Value of measured RBA, Alligator for the entry ClC1=C(Cl)[C@]2(Cl)[C@H]3[C@H]([C@H](Cl)C(Cl)[C@@H]3Cl)[C@@]1(Cl)C2(Cl)Cl (stereo partly drawn) [trans-Nonachlor] : 0.005

For record C[C@]12CC[C@@H]3c4ccc(O)cc4CC[C@H]3[C@@H]1CC[C@@H]2O [17β-Estradiol, reference compound] the listed RBA, Alligator is 100

Form: molecule = CC(C)(c1ccc(O)cc1)c1ccc(O)cc1 [Bisphenol A, reference compound] ; RBA, Alligator = 0.07

Given item ClC1=C(Cl)[C@]2(Cl)[C@H]3[C@H]([C@H](Cl)C(Cl)[C@@H]3Cl)[C@@]1(Cl)C2(Cl)Cl (stereo partly drawn) [cis-Nonachlor] , the value recorded as its RBA, Alligator is 0.006
